assay: Example 1: general pharmacokinetics in volunteers; assay type: in vivo, human; conditions: human, in vivo, po
Counter-ions that a name gives are not always drawn.
QUANTITY MEASURED: Tmax

>  <COMPOUND>
CCn1cc(C(=O)O)c(=O)c2cc(F)c(N3CCNC(C)C3)c(F)c21 (racemic) [lomefloxacin HCl]

>  <QUANTITY MEASURED>
Tmax

>  <VALUE OBSERVED>
0.8 to 1.4 h

$$$$

====

assay: Food effect on pharmacokinetics; format: in vivo, human; settings: human, in vivo; with food
Structures can show the parent of a compound that is named as a salt.
QUANTITY MEASURED: Tmax (h)

>  <COMPOUND>
CCn1cc(C(=O)O)c(=O)c2cc(F)c(N3CCNC(C)C3)c(F)c21 (racemic) [lomefloxacin HCl]

>  <UNIT TEXT>
h

>  <VALUE OBSERVED>
2

$$$$

====

test: Example 5: lomefloxacin plasma concentrations; details: human, plasma, plasma concentration, Hour 38, mean, mean, p.m. dosing; 38 hours following last active dose
Where a name gives a salt, the structure may show the parent alone.
QUANTITY MEASURED: concentration at 38 h (ng/mL)

>  <MOLECULE>
CCn1cc(C(=O)O)c(=O)c2cc(F)c(N3CCNC(C)C3)c(F)c21 (racemic) [lomefloxacin HCl]

>  <VALUE OBSERVED>
100

$$$$

====

test: Example 5: lomefloxacin plasma concentrations; settings: human, plasma, plasma concentration, Hour 16, mean, mean, a.m. dosing; 2 hours following last active dose
Structures can show the parent of a compound that is named as a salt.
QUANTITY MEASURED: concentration at 2 h (ng/mL)

>  <COMPOUND>
CCn1cc(C(=O)O)c(=O)c2cc(F)c(N3CCNC(C)C3)c(F)c21 (racemic) [lomefloxacin HCl]

>  <UNIT TEXT>
ng/mL

>  <VALUE OBSERVED>
3100

$$$$

====

test: Pharmacokinetics in the geriatric population; assay type: in vivo, human; details: human, in vivo; 16 elderly volunteers, single 400 mg dose
Where a name gives a salt, the structure may show the parent alone.
QUANTITY MEASURED: half-life (h)

>  <COMPOUND>
CCn1cc(C(=O)O)c(=O)c2cc(F)c(N3CCNC(C)C3)c(F)c21 (racemic) [lomefloxacin HCl]

>  <UNIT TEXT>
h

>  <VALUE OBSERVED>
8

$$$$

====

assay: Tissue or fluid to plasma ratios and blister fluid distribution after oral administration; type: in vivo, human; conditions: Urine, oral; read-out: Mean Tissue or Fluid to Plasma Ratio
Counter-ions that a name gives are not always drawn.
QUANTITY MEASURED: Kp

>  <COMPOUND>
CCn1cc(C(=O)O)c(=O)c2cc(F)c(N3CCNC(C)C3)c(F)c21 (racemic) [lomefloxacin HCl]

>  <VALUE OBSERVED>
140

$$$$

====

experiment: Example 5: lomefloxacin plasma concentrations; details: human, plasma, plasma concentration, Hour 19, mean, mean, a.m. dosing; 5 hours following last active dose
Where a name gives a salt, the structure may show the parent alone.
QUANTITY MEASURED: concentration at 5 h (ng/mL)

>  <COMPOUND>
CCn1cc(C(=O)O)c(=O)c2cc(F)c(N3CCNC(C)C3)c(F)c21 (racemic) [lomefloxacin HCl]

>  <UNIT TEXT>
ng/mL

>  <VALUE OBSERVED>
2200

$$$$

====

experiment: Example 5: lomefloxacin plasma concentrations; settings: human, plasma, plasma concentration, Hour 14, mean, mean, p.m. dosing; 14 hours following last active dose
Counter-ions that a name gives are not always drawn.

>  <COMPOUND>
CCn1cc(C(=O)O)c(=O)c2cc(F)c(N3CCNC(C)C3)c(F)c21 (racemic) [lomefloxacin HCl]

>  <concentration at 14 h>
1000 ng/mL

$$$$

====

assay: Example 1: general pharmacokinetics in volunteers; format: in vivo, human; conditions: human, in vivo, po
Structures can show the parent of a compound that is named as a salt.

>  <MOLECULE>
CCn1cc(C(=O)O)c(=O)c2cc(F)c(N3CCNC(C)C3)c(F)c21 (racemic) [lomefloxacin HCl]

>  <CL renal, mL/min>
145

$$$$
